Assay: Phase I study: plasma pharmacokinetics (UPLC-MS/MS)
Conditions: human, plasma, AUClast, mean (SD), Multiple dose; Tunlametinib 12mg BID + vemurafenib 960mg BID
metric-name: AUC(0-t) (µg·h/mL)
Please give a number only; it is taken to be in µg·h/mL.

Enquiry: Fill blank: measured AUC(0-t) of the compound `CCCS(=O)(=O)Nc1ccc(F)c(C(=O)c2c[nH]c3ncc(-c4ccc(Cl)cc4)cc23)c1F` is ____.
Return: 456

* * *

Assay: Phase I study: plasma pharmacokinetics (UPLC-MS/MS)
Conditions: human, plasma, oral, Median Tmax, vemurafenib, single-dose
metric-name: Tmax

Enquiry: Data request, read-out Tmax, for `CCCS(=O)(=O)Nc1ccc(F)c(C(=O)c2c[nH]c3ncc(-c4ccc(Cl)cc4)cc23)c1F`
Return: ~4 h

* * *

Assay: Phase I study: plasma pharmacokinetics (UPLC-MS/MS)
Conditions: human, plasma, Tmax, median (range), Multiple dose; Tunlametinib 9mg BID + vemurafenib 960mg BID
metric-name: Tmax (h)
Give the value, in units of h, as a plain number.

Enquiry: Quick check: Tmax of CCCS(=O)(=O)Nc1ccc(F)c(C(=O)c2c[nH]c3ncc(-c4ccc(Cl)cc4)cc23)c1F [Vemurafenib, vemurafenib] ?
Return: 4.07

* * *

Assay: Phase I study: plasma pharmacokinetics (UPLC-MS/MS)
Details: human, plasma, 720 mg, Cmax, mean (SD), Multiple dose; Vemurafenib 720mg BID Total
metric-name: Cmax (ng/mL)
Kindly provide the numeric value in ng/mL only, without the unit symbol.

Enquiry: Can you look up the measured Cmax of `CCCS(=O)(=O)Nc1ccc(F)c(C(=O)c2c[nH]c3ncc(-c4ccc(Cl)cc4)cc23)c1F` for me?
Return: 36600

* * *

Assay: Phase I study: plasma pharmacokinetics (UPLC-MS/MS)
Conditions: human, plasma, Tmax, median (range), Single dose; Tunlametinib 12mg BID + vemurafenib 720mg BID
metric-name: Tmax (h)
Express your answer in h, writing the number without its unit.

Enquiry: Please report the recorded Tmax for CCCS(=O)(=O)Nc1ccc(F)c(C(=O)c2c[nH]c3ncc(-c4ccc(Cl)cc4)cc23)c1F [Vemurafenib, vemurafenib] .
Return: 4

* * *

Test: Phase I study: plasma pharmacokinetics (UPLC-MS/MS)
Details: human, plasma, AUCtau, mean (SD), Multiple dose; Tunlametinib 9mg BID + vemurafenib 720mg BID
metric-name: AUC (µg·h/mL)
Response body: numeric value in µg·h/mL, unit text excluded.

Enquiry: Report AUC for `CCCS(=O)(=O)Nc1ccc(F)c(C(=O)c2c[nH]c3ncc(-c4ccc(Cl)cc4)cc23)c1F` please.
Return: 358

* * *

Assay: Phase I study: plasma pharmacokinetics (UPLC-MS/MS)
Details: human, plasma, 960 mg, AUClast, mean (SD), Multiple dose; Vemurafenib 960mg Total
metric-name: AUC(0-t) (µg·h/mL)
Please state the figure in µg·h/mL; there is no need to write the unit.

Enquiry: Endpoint output: AUC(0-t) of `CCCS(=O)(=O)Nc1ccc(F)c(C(=O)c2c[nH]c3ncc(-c4ccc(Cl)cc4)cc23)c1F` . Value?
Return: 503

* * *

Assay: Phase I study: plasma pharmacokinetics (UPLC-MS/MS)
Conditions: human, plasma, 720 mg, AUClast, mean (SD), Multiple dose; Vemurafenib 720mg BID Total
metric-name: AUC(0-t) (µg·h/mL)
Give the value in µg·h/mL but do not write µg·h/mL after it.

Enquiry: Find the recorded AUC(0-t) belonging to `CCCS(=O)(=O)Nc1ccc(F)c(C(=O)c2c[nH]c3ncc(-c4ccc(Cl)cc4)cc23)c1F` and report it.
Return: 372
